test system: 60 cancer cell lines (NCI 60 cancer cell line series); assay: NCI-DTP in vitro cancer screen, sulforhodamine B (SRB) growth inhibition, 48 hour exposure; type: cell-based, human; conditions: cell line Ovarian OVCAR-8, CL6005
Structures can show the parent of a compound that is named as a salt.
Items are presented alongside their recorded sensitivity class Ovarian OVCAR-8 CL6005.
Response field accepts a number only; no unit should be typed.

Here's what some known entries look like.
>  <molecule>
OC[C@H]1O[C@@H](n2cnc3c2N=CNC[C@H]3O)C[C@@H]1O

>  <sensitivity class Ovarian OVCAR-8 CL6005>
2

$$$$
>  <molecule>
COc1cccc2c1C(=O)c1c(O)c3c(c(O)c1C2=O)C[C@@](O)(C(C)=O)C[C@@H]3O[C@H]1C[C@H](N)[C@H](O)[C@H](C)O1

>  <sensitivity class Ovarian OVCAR-8 CL6005>
2

$$$$
>  <molecule>
CC[C@]1(O)C[C@H]2CN(CCc3c([nH]c4ccccc34)[C@@](C(=O)OC)(c3cc4c(cc3OC)N(C=O)[C@H]3[C@@](O)(C(=O)OC)[C@H](OC(C)=O)[C@]5(CC)C=CCN6CC[C@]43[C@@H]65)C2)C1 [Vincristine sulfate]

>  <sensitivity class Ovarian OVCAR-8 CL6005>
3

$$$$
>  <molecule>
COc1cccc2c1C(=O)c1c(O)c3c(c(O)c1C2=O)C[C@@](O)(C(=O)CO)C[C@@H]3O[C@H]1C[C@H](N)[C@H](O)[C@H](C)O1

>  <sensitivity class Ovarian OVCAR-8 CL6005>
2

$$$$

Reported sensitivity class Ovarian OVCAR-8 CL6005 for COc1cc([C@@H]2c3cc4c(cc3[C@@H](O[C@@H]3O[C@@H]5CO[C@@H](c6cccs6)O[C@H]5[C@H](O)[C@H]3O)[C@H]3COC(=O)[C@H]23)OCO4)cc(OC)c1O [Teniposide] was 2
